- Species: Rattus norvegicus
- Protocol description: Open TG-GATES - Regimen: Single
- Assay type: toxicity, organism-based, Sprague-Dawley
- Set-up: regimen Single, gender Male, age 6 weeks
- Details: in vivo, po, 0 mg/kg, 6 h, tissue Plasma, route gavage, dose level Control
IP strictly less than 10 mg/dL = TRUE. Otherwise FALSE.

Observe how each entry below is paired with its result.
Cc1cnc(NC(=O)C2=C(O)c3ccccc3S(=O)(=O)N2C)s1 [MELOXICAM] = TRUE
C=CCO [ALLYL ALCOHOL] = TRUE
Cn1cnc([N+](=O)[O-])c1Sc1ncnc2nc[nH]c12 [AZATHIOPRINE] = TRUE
Cc1cccc(Nc2cc(Cl)nc(SCC(=O)O)n2)c1C [PIRINIXIC ACID] = FALSE

Consider the record given below.
Exam item: Does the reported IP of the following molecule sit strictly below 10 mg/dL? O=C1CN(/N=C/c2ccc(-c3ccc([N+](=O)[O-])cc3)o2)C(O)=N1 [DANTROLENE]
Marked response: TRUE

###

// Ret lookup, one value per entry
- Species: Rattus norvegicus
- Protocol description: Open TG-GATES - Regimen: Daily Repeat
- Type: toxicity, organism-based, Sprague-Dawley
- Parameters: regimen Daily Repeat, gender Male, age 6 weeks
- Details: in vivo, po, 0 mg/kg, […], tissue Blood, route gavage, dose level Control, time 7 day
Respond with the bare value in %.

# count of solved cases: 3
COc1ccc(Cl)cc1C(=O)NCCc1ccc(S(=O)(=O)NC(=O)NC2CCCCC2)cc1 [GLYBURIDE] = 5.5
Cc1cccc(Nc2cc(Cl)nc(SCC(=O)O)n2)c1C = 5.5
O=P1(N(CCCl)CCCl)NCCCO1 (stereo unspecified) [CYCLOPHOSPHAMIDE ANHYDROUS] = 6.1

Exam item: Quick one: Ret of O=C1CN(/N=C/c2ccc(-c3ccc([N+](=O)[O-])cc3)o2)C(O)=N1 ?
Marked response: 5.1

###

- Species on record: Rattus norvegicus
- Protocol description: Open TG-GATES - Regimen: Daily Repeat
- Assay type: toxicity, organism-based, Sprague-Dawley
- Design: regimen Daily Repeat, gender Male, age 6 weeks
- Details: in vivo, po, 0 mg/kg, […], route gavage, dose level Control, time 28 day
Measured property: TERMINAL_BW (g)
Numbers only here, please. The scale is g.

Recorded TERMINAL_BW, per entry:
O=C1NC(=O)C(c2ccccc2)(c2ccccc2)N1 = 378.5
O=C1CN(/N=C/c2ccc(-c3ccc([N+](=O)[O-])cc3)o2)C(O)=N1 = 379.1
COc1ccc(O)c(C(C)(C)C)c1.COc1ccc(O)cc1C(C)(C)C [BUTYLATED HYDROXYANISOLE] = 409.6
C=CCO = 385.1
Cc1cnc(NC(=O)C2=C(O)c3ccccc3S(=O)(=O)N2C)s1 = 396.9

Consider now this further molecule.
Exam item: What does the record list as TERMINAL_BW for Cn1cnc([N+](=O)[O-])c1Sc1ncnc2nc[nH]c12 ?
Marked response: 356.1

###

- Species: Rattus norvegicus
- Protocol description: Open TG-GATES - Regimen: Single
- Format: toxicity, organism-based, Sprague-Dawley
- Set-up: regimen Single, gender Male, age 6 weeks
- Details: in vivo, po, 0 mg/kg, 6 h, tissue Blood, route gavage, dose level Control
Measured property: APTT (s)
Please respond with the number in s and leave the unit unwritten.

Example results:
COc1ccc(O)c(C(C)(C)C)c1.COc1ccc(O)cc1C(C)(C)C [BUTYLATED HYDROXYANISOLE] = 16.8
C=CCO = 19.3
CS(=O)(=O)Nc1ccc([N+](=O)[O-])cc1Oc1ccccc1 [NIMESULIDE] = 17.7

Exam item: Quick check: APTT of Cc1cccc(Nc2cc(Cl)nc(SCC(=O)O)n2)c1C ?
Marked response: 17.1

Exam item: Entry Cn1cnc([N+](=O)[O-])c1Sc1ncnc2nc[nH]c12 has what APTT?
Marked response: 21.1

Exam item: Quick check: APTT of O=C1NC(=O)C(c2ccccc2)(c2ccccc2)N1 ?
Marked response: 16.8

Exam item: Name the recorded APTT for S=C=Nc1cccc2ccccc12 [1-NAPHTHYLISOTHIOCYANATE] .
Marked response: 18.7

Exam item: Given COc1ccc(Cl)cc1C(=O)NCCc1ccc(S(=O)(=O)NC(=O)NC2CCCCC2)cc1 [GLYBURIDE] , state its recorded APTT.
Marked response: 19.8

Exam item: Data request, read-out APTT, for O=C1CN(/N=C/c2ccc(-c3ccc([N+](=O)[O-])cc3)o2)C(O)=N1
Marked response: 16.6

###

- Species: Rattus norvegicus
- Protocol description: Open TG-GATES - Regimen: Single
- Type: toxicity, organism-based, Sprague-Dawley
- Parameters: regimen Single, gender Male, age 6 weeks
- Details: in vivo, po, 0 mg/kg, 24 h, tissue Kidney, route gavage, dose level Control
Outcome label depends on KIDNEY_TOTAL relative to 2 g: at/above gives True, below gives False.

CS(=O)(=O)Nc1ccc([N+](=O)[O-])cc1Oc1ccccc1 [NIMESULIDE] = False
COc1ccc(O)c(C(C)(C)C)c1.COc1ccc(O)cc1C(C)(C)C [BUTYLATED HYDROXYANISOLE] = False
Cc1cccc(Nc2cc(Cl)nc(SCC(=O)O)n2)c1C [PIRINIXIC ACID] = False
O=C1NC(=O)C(c2ccccc2)(c2ccccc2)N1 [PHENYTOIN] = True
C=CCO [ALLYL ALCOHOL] = False

Kindly review the next compound as well.
Exam item: Check the entry Cn1cnc([N+](=O)[O-])c1Sc1ncnc2nc[nH]c12 [AZATHIOPRINE] : does KIDNEY_TOTAL equal or exceed 2 g?
Marked response: False

###

- Organism: Rattus norvegicus
- Protocol description: Open TG-GATES - Regimen: Daily Repeat
- Format: toxicity, organism-based, Sprague-Dawley
- Set-up: regimen Daily Repeat, gender Male, age 6 weeks
- Details: in vivo, po, 0 mg/kg, […], tissue Plasma, route gavage, dose level Control, time 14 day
Measured property: Ca (mg/dL)
Your answer should be a plain number; it is taken to be in mg/dL.

Worked examples, 3 molecules total:
Cc1cccc(Nc2cc(Cl)nc(SCC(=O)O)n2)c1C = 10.6
CS(=O)(=O)Nc1ccc([N+](=O)[O-])cc1Oc1ccccc1 [NIMESULIDE] = 10.7
O=P1(N(CCCl)CCCl)NCCCO1 (centres undefined) [CYCLOPHOSPHAMIDE ANHYDROUS] = 10.6

Here is another molecule to look at.
Exam item: Quick one: Ca for O=C1CN(/N=C/c2ccc(-c3ccc([N+](=O)[O-])cc3)o2)C(O)=N1 ?
Marked response: 10.5

###

- Species on record: Rattus norvegicus
- Protocol description: Open TG-GATES - Regimen: Daily Repeat
- Type: toxicity, organism-based, Sprague-Dawley
- Parameters: regimen Daily Repeat, gender Male, age 6 weeks
- Details: in vivo, po, 0 mg/kg, […], tissue Plasma, route gavage, dose level Control, time 7 day
Measured property: TG (mg/dL)
Just the number please, in mg/dL, no unit attached.

Please review the entries below; each comes with its answer.
COc1ccc(Cl)cc1C(=O)NCCc1ccc(S(=O)(=O)NC(=O)NC2CCCCC2)cc1 [GLYBURIDE] = 128.2
CS(=O)(=O)Nc1ccc([N+](=O)[O-])cc1Oc1ccccc1 [NIMESULIDE] = 108.6
COc1ccc(O)c(C(C)(C)C)c1.COc1ccc(O)cc1C(C)(C)C [BUTYLATED HYDROXYANISOLE] = 95.2
O=C1NC(=O)C(c2ccccc2)(c2ccccc2)N1 = 131.4

Now consider a different compound.
Exam item: Name the reported TG value associated with the compound Cc1cccc(Nc2cc(Cl)nc(SCC(=O)O)n2)c1C
Marked response: 128.4

###

- Organism: Rattus norvegicus
- Protocol description: Open TG-GATES - Regimen: Single
- Assay type: toxicity, organism-based, Sprague-Dawley
- Parameters: regimen Single, gender Male, age 6 weeks
- Details: in vivo, po, 0 mg/kg, 24 h, tissue Plasma, route gavage, dose level Control
# AST annotations
# value in IU/L; strip the unit string

Cc1cnc(NC(=O)C2=C(O)c3ccccc3S(=O)(=O)N2C)s1 [MELOXICAM] = 62.6
CS(=O)(=O)Nc1ccc([N+](=O)[O-])cc1Oc1ccccc1 [NIMESULIDE] = 62.8

Exam item: Give its AST value. Item: S=C=Nc1cccc2ccccc12 [1-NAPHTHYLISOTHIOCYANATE]
Marked response: 75.8

Exam item: Quick one: AST of COc1ccc(Cl)cc1C(=O)NCCc1ccc(S(=O)(=O)NC(=O)NC2CCCCC2)cc1 [GLYBURIDE] ?
Marked response: 61.4

###

- Organism: Rattus norvegicus
- Protocol description: Open TG-GATES - Regimen: Daily Repeat
- Format: toxicity, organism-based, Sprague-Dawley
- Set-up: regimen Daily Repeat, gender Male, age 6 weeks
- Details: in vivo, po, 0 mg/kg, […], tissue Blood, route gavage, dose level Control, time 7 day
Catalogue of Hb readings, one per entry.
Quick reminder: number only, in g/dL, skip the unit.

COc1ccc(Cl)cc1C(=O)NCCc1ccc(S(=O)(=O)NC(=O)NC2CCCCC2)cc1 [GLYBURIDE] = 13.7
O=C1NC(=O)C(c2ccccc2)(c2ccccc2)N1 [PHENYTOIN] = 13.4
O=P1(N(CCCl)CCCl)NCCCO1 (stereo not drawn) [CYCLOPHOSPHAMIDE ANHYDROUS] = 13.1
CS(=O)(=O)Nc1ccc([N+](=O)[O-])cc1Oc1ccccc1 [NIMESULIDE] = 14.2
Cn1cnc([N+](=O)[O-])c1Sc1ncnc2nc[nH]c12 [AZATHIOPRINE] = 13.8

Exam item: Looking for the measured Hb of O=C1CN(/N=C/c2ccc(-c3ccc([N+](=O)[O-])cc3)o2)C(O)=N1 [DANTROLENE] , can you help?
Marked response: 14

Exam item: What does the data say about its Hb? Entry: COc1ccc(O)c(C(C)(C)C)c1.COc1ccc(O)cc1C(C)(C)C [BUTYLATED HYDROXYANISOLE]
Marked response: 13.5

Exam item: Give the measured Hb of C=CCO [ALLYL ALCOHOL] .
Marked response: 13.3
